test system: MDA-MB-435

Compound	GI50
Oc1ccc(Oc2cnc3cc(Cl)ccc3n2)cc1	23800 nM
Nc1nccc2c1ccn2-c1cccc(NC(=O)c2ccc(N3CCOCC3)c(C(F)(F)F)c2)c1	163 nM
CCCCCCCCNC(C)C(O)c1ccc(SC(C)C)cc1 (stereo not drawn)	1690 nM
CC[C@H](C)[C@H](NC(=O)NC(C)(C)C)C(=O)N(C)[C@H](C[C@@H](OC(C)=O)c1nc(C(=O)N[C@@H](Cc2ccccc2)C[C@H](C)C(=O)OC)cs1)C(C)C	88.4 nM
O=C1/C(=C/c2ccc(Cl)cc2)CN(C(=O)CCN2CCC(=NO)CC2)C/C1=C\c1ccc(Cl)cc1	631 nM
CN1CCN(c2ccc3nc(-c4[nH]ncc4Nc4ncnc5c4OCCCN5)[nH]c3c2)CC1	< 10 nM
O=C(Oc1ccccc1Cl)c1ccccc1Nc1cccc(C(F)(F)F)c1	11700 nM
CN(C)c1ccc(Nc2c3ccccc3nc3cc(NC(=O)CCN4CCCC4)ccc23)cc1	1220 nM
COc1ccc(-c2nc(-c3ccccn3)c(-c3ccccn3)n2CC(C)C)cc1OC1CCCC1	31300 nM
O=C(c1ccco1)c1nc2cc(C(F)(F)F)ccc2[n+]([O-])c1C(F)(F)F	37000 nM
O=C(c1nn(-c2ccc(Cl)cc2)cc1O)n1nc(C(F)(F)F)cc1-c1ccccc1	3380 nM
O=C(Cn1c(C(=O)c2ccc(Cl)cc2)nc(-c2ccccc2)c1-c1ccccc1)c1ccc(Cl)cc1	> 100000 nM
NC(=O)c1sc(-n2cnc3ccc(C(F)(F)F)cc32)cc1OCc1ccccc1Br	636 nM
